- Test system: MS2 coat protein
- Method Summary: apparent Kd, MS2 coat protein; higher = weaker binding; RNA-MaP array; tryptophan 2.4 mM where present
- Condition Info: designed as: OFF switch for tryptophan; no ligand
For each record, write down the corresponding apparent Kd.
Write the number in µM without appending the unit.

Query: Notebook: pull reported apparent Kd for MS2 coat protein, entry `GUUAUAUCAAAAGAUGUAACAGUGGGUGAACGAGGACCGGUACGGCCGCCACUCGGACAUGAGGAUCACCCAUGUCCAUGUGAAA`
Reply: 0.0179

Query: Record `UAACAUGAGGAUCACCCAUGUAUACUUAGUCGAGGACCGGUACGGCCGCCACUCGUACUUCAAGAUUUGGCGGAAAAUGUAUGUA` : what is its apparent Kd with MS2 coat protein?
Reply: 0.0125

Query: Field: apparent Kd (MS2 coat protein). Entry: `GGUUGAUGACAUGAGGAUCACCCAUGUAGGCGAGGACCGGUACGGCCGCCACUCGACAUGAGGAUCACCCAUGUCGGCGUCCGUG`
Reply: 0.0152

Query: // map `ACAUGACAACAUGAGGAUCACCCAUGUCAUCGAGGACCGGUACGGCCGCCACUCGGUCAAUAUGAUACUUGUCAUGAACAUGAGG` to recorded apparent Kd (system: MS2 coat protein)
Reply: 0.0187

Query: Please provide the recorded apparent Kd for `GUUAUAACAAAAGUUGUAACAGUGGGUGAACGAGGACCGGUACGGCCGCCACUCGGACAUGAGGAUCACCCAUGUCCAUGUGAAA` , tested on MS2 coat protein.
Reply: 0.0162

Query: # value lookup — system MS2 coat protein, readout apparent Kd, item `AGCGUGCAUCGGAAAACGAUGUACGCAAAUCGAGGACCGGUACGGCCGCCACUCGUCCUCAACAUGAGGAUCACCCAUGUAAUAA`
Reply: 0.0191

Query: Which apparent Kd is reported with MS2 coat protein for this entry: `CUGUGUCCUUCGGCCGCCACUACAUGAGGAUCACCCAUGUCGUUACGGCUCCCAAUGACGCUUUGUAGGACCGGGAAGGAGUAUG` ?
Reply: 0.0103

Query: Item `AGAUUCGACACGGCCGCCACUCGAGACGGAUUUCCGAGUGUCGAACAUGAGGAUCACCCAUGUCCGAGGACCGGGUGUUGAGUCU` with MS2 coat protein - apparent Kd?
Reply: 0.0322

Query: Provide value of apparent Kd for this record tested with MS2 coat protein: `CCUAUCCAGUCGGCCGCCACUGACCAUUUGGAACAGUGGGUGAAAACAUGAGGAUCACCCAUGUACAGGACCGGGACUGUAUAGG`
Reply: 0.0116

Query: Form field - read-out: apparent Kd; system: MS2 coat protein; submitted item: `GGGCGCUAUCCCGCGAGGGAUAGCGUUCGUCGAGGACCGGUACGGCCGCCACUCGAACGAGUGGUGACAUGAGGAUCACCCAUGU`
Reply: 0.0502

Query: Provide the documented apparent Kd with MS2 coat protein as the system for `GGUAUGUAUUCGGAAACGAAUGCAUACCAACGAGGACCGGUACGGCCGCCACUCGGCGGCGAUCAACAUGAGGAUCACCCAUGUA`
Reply: 0.0404

Query: Find the measured apparent Kd: item `CGUAUUGGAAACAGUACGAGUGAUCCGGUCCGAGGACCGGUACGGCCGCCACUCGAAAAUAAAUAACAUGAGGAUCACCCAUGUA` , target or system MS2 coat protein.
Reply: 0.0167

Query: Any idea what apparent Kd came out for `UUUGUAAUUGUCUGGUAGAUUUAUUUAUUUCGAGGACCGGUACGGCCGCCACUCGUUAAUUACAUGAGGAUCACCCAUGUUAGCU` on MS2 coat protein?
Reply: 0.0134
